Assay: NCI Yeast Anticancer Drug Screen. Data for the cln2 rad14 strain (AID 165);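 also: 0% = growth equal to vehicle treated cultures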
Details: S. cerevisiae cln2 rad14 strain, at 5.0 µM (retest, dose inferred, filed as 0.5)
Experimental: Growth inhibition of yeast strains with defined genetic alterations is measured as a screen for potential anti-cancer activity. Selected strains with alterations in DNA damage repair or cell cycle control were exposed to compounds and growth inhibition was measured relative to vehicle treated controls. The strain used in this assay is cln2 rad14
Compounds without any hit were thinned out: in the full panel of roughly 79,000, 15% have a hit. Calls of active or inactive are those of the source. Rule as the data show it: active = growth inhibition above about 70%; inactive = the rest.
Field 'call' accepts active, inactive

Nc1ccc(C(=O)/C=C/c2ccccn2)cc1; inactive
O=c1c2c(F)c(F)c(F)c(F)c2sc2nccn12; inactive
C(=N\NC1=NCCN1)/c1ccc(-c2cn3cc(/C=N/NC4=NCCN4)ccc3n2)cc1; active

Prompt: Lab log entry: O=C1OC(=O)C2C=CC=CC12 (stereo not drawn) — outcome as called in the assay?
Completion: inactive

Prompt: Hi, sorry to bother you, what did the test record for O=C(/C(=C\c1ccccc1)c1ccccc1)c1ccc(Br)cc1 ?
Completion: inactive

Prompt: What outcome does the record of this test show for CCC[N+]1=C(/C=C/c2ccc3cccnc3c2O)C(C)(C)c2ccccc21 ?
Completion: inactive

Prompt: GET /call?item= CC(C)C(O)(C(=O)OCN1C(=O)C2C3C=CC(C2C1=O)C1C2C(=O)N(COC(=O)C(O)(C(C)C)C(C)O)C(=O)C2C31)C(C)O (stereo not drawn) returns the recorded outcome of this test.
Completion: inactive

Prompt: Fill in: this test's call for CN(C)C(=O)c1cc(Br)cc(-c2ccccc2)c1O is ___
Completion: inactive

* * *

experiment: NCI Yeast Anticancer Drug Screen. Data for the bub3 strain (AID 167); settings: S. cerevisiae bub3 mutant strain, at 5.0 µM (retest, dose inferred, filed as 0.5), stronger effect = higher value
The panel holds about 79,000 compounds, 15% with a hit somewhere; the sample as a whole holds those more often.
measurementLabel: growth inhibition (%)
One number for each entry, in %.

COc1cccc(/C=C(\NC(=O)c2ccccc2)c2nc3ccccc3s2)c1; 29
CN(C)c1ccc(C(c2ccc(N(C)C)cc2)c2cccc([N+](=O)[O-])c2)cc1; 43
Cc1ccc(SCc2ccccc2Cl)nn1; 6
O=C(c1ccccc1)c1ccc2c(c1Cl)C(=O)c1ccccc1C2=O; -8
COc1ccc(/C(C#N)=C(/N)SCc2ccccc2Cl)cc1; 3
COc1ccc(/C=C2/C(=O)N(C(=O)c3ccccc3O)N=C2C)cc1OC; 17

Respectfully, I request growth inhibition for each entry included below.
1. CCOc1ccc2c(c1)CCC1C2CCC2(C)CC(O)CC12 (stereo not given)
2. O=C1c2ccc3c4ccccc4n(Cc4ccccc4)c3c2C(=O)N1c1ccccc1
3. CC1NS(=O)(=O)N(C)C1=O (stereo not given)
4. OC(C1CCCC1=N/N=C1/CCCC1C(O)(C(F)(F)Cl)C(F)(F)Cl)(C(F)(F)Cl)C(F)(F)Cl (stereo not given)

Completion:
-4
80
6
0

Answer for every listed entry: what is its growth inhibition? The entries follow.
1. O=C(Oc1ccccc1)C1CCCCC1C(=O)Oc1ccccc1 (stereo not given)
2. CCCCCCCCC1(C(=O)OCCN(CC)CC)CCCCC1
3. Cc1ccc(O)c(C(C)c2ccccc2)c1 (stereo not given)
4. Cn1cc(NC(=O)Nc2cc(C(=O)Nc3cc(C(=O)Nc4cc(S(=O)(=O)O)c5cc(S(=O)(=O)O)cc(S(=O)(=O)O)c5c4)n(C)c3)n(C)c2)cc1C(=O)Nc1cc(C(=O)Nc2cc(S(=O)(=O)O)c3cc(S(=O)(=O)O)cc(S(=O)(=O)O)c3c2)n(C)c1
5. CCc1ccccc1SC(C)=O

Completion:
1. -9
2. 22
3. 21
4. 30
5. 7

* * *

experiment: NCI Yeast Anticancer Drug Screen. Data for the sgs1 mgt1 strain (AID 161);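 also: 0% = growth of cultures given vehicle only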; conditions: S. cerevisiae sgs1 mgt1 strain, at 50.0 µM, stronger effect = higher value
This is part of a sample that, as a whole, favours compounds with a hit. Of some 79,000 tested, about 15% had one in any assay.
Returns the class for an entry based on its growth inhibition. Class ranges: lowest: < 50%; middle: ≥ 50% and < 90%; highest: ≥ 90%

Reference set (10 entries):
CNS(=O)(=O)c1ccccc1C=C(c1ccccc1)c1ccccc1; highest
O=c1c2ccccc2sc2cccc(NCCCN3CCN(CCCNc4cccc5sc6ccccc6c(=O)c45)CC3)c12; lowest
COC(=O)CCCC(=O)NC1=C(Nc2ccccc2)C(=O)c2ccccc2C1=O; middle
COc1ccc(/C=C/C(C(=O)O)C(=O)O)cc1; middle
CCOc1ccc(C(=O)CCN2CCOCC2)cc1; middle
NC(=O)C(=O)N/N=C/c1ccc([N+](=O)[O-])o1; middle
CCOC(=O)C1CC(C(=O)OCC)C(=O)C1=O (configuration not stated); lowest
N#CSc1ccc(Nc2ccc(SC#N)cc2)cc1; highest
CN(Cc1cnc2nc(N)nc(N)c2n1)c1ccc(C(=O)NC(CCC(=O)O)C(=O)O)cc1C(F)(F)F (configuration not stated); middle
O=C1/C(=C\c2ccc([N+](=O)[O-])o2)Oc2cc(O)ccc21; highest

Prompt: Which class does Cc1cc(=O)c2c(ccc3cc4ccccc4cc32)[nH]1 fall in?
Completion: lowest

Prompt: Textbook exercise: identify the category of the compound given here, Cc1cc(N(CCOS(C)(=O)=O)CCOS(C)(=O)=O)ccc1C=Nc1ccccc1C(=O)O , according to its measured value.
Completion: middle

* * *

assay: NCI Yeast Anticancer Drug Screen. Data for the cln2 rad14 strain (AID 165);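 also: 0% = growth equal to vehicle treated cultures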; details: S. cerevisiae cln2 rad14 strain, at 5.0 µM (retest, dose inferred, filed as 0.5), stronger effect = higher value
This is part of a sample that, as a whole, favours compounds with a hit. Of some 79,000 tested, about 15% had one in any assay.
measurementLabel: growth inhibition (%)
Numbers only, in %.

Please review the following examples before continuing.
Cn1cnc([N+](=O)[O-])c1Sc1nnnn1-c1ccccc1; 32
Clc1ccc(N2CCN(CCCN3CCN(c4ccc(Cl)cc4)CC3)CC2)cc1; -3
CC(=O)Nc1ccccc1C(O)(c1ccccc1)c1ccccc1; 2
COc1ccc(C2=NN(c3ccccc3)C[N+](c3ccc(C)cc3)=N2)cc1; 12
O=C(/C=C(\OB(F)F)c1ccccc1)c1ccccc1; -8

Please state growth inhibition for every compound in the list that follows.
1. O=[N+]([O-])CCc1ccco1
2. CCOc1ccc2c(c1)n([O-])c1ccccc1[n+]2=O
3. Cc1c(C2Cc3ccccc3N2C(=O)/C=C\C(=O)O)c2ccccc2n1C (centres undefined)
4. N#CSc1ccc(Nc2ccc(SC#N)cc2)cc1
5. Oc1ccc(Br)cc1C=Nc1c(NC2CCCCC2)oc2ccc(Br)cc12

Completion:
3
31
31
99
-18

* * *

assay: NCI Yeast Anticancer Drug Screen. Data for the mlh1 rad18 strain (AID 175); conditions: S. cerevisiae mlh1 rad18 strain growth inhibition; at 5.0 µM (retest, dose inferred, filed as 0.5); stronger effect = higher value
The panel holds about 79,000 compounds, 15% with a hit somewhere; the sample as a whole holds those more often.
measurementLabel: growth inhibition (%)
Numbers only, in %.

Below, 3 compounds whose answers are already recorded.
O=C(/C(=C/c1ccc(Cl)cc1)c1ccccc1)c1ccc(O)cc1; 96
O=C(NCc1ccccc1)N1CCN(c2ccccc2)C1=O; -4
CCCOC(=O)C1CCCCC1C(=O)OCCC (centres undefined); -7

Hi! Can you tell me growth inhibition for each of these compounds?
1. ONC(=Nc1ccccc1)c1ccccc1
2. CC(=O)OC1CCCc2c1nc1ccccc1[n+]2[O-] (centres undefined)
3. CCOC(=O)N1CCN(CCCCCCOc2c(Cl)cc(Cl)cc2Cl)CC1
4. Clc1ccc(CNc2ccc(Br)cc2)cc1

Completion:
1. -120
2. 11
3. 49
4. -1

* * *

Would you kindly list growth inhibition for each of these compounds?
assay: NCI Yeast Anticancer Drug Screen. Data for the bub3 strain (AID 167); conditions: S. cerevisiae bub3 mutant strain, at 50.0 µM (retest, dose inferred, filed as 5.0), stronger effect = higher value
Compounds without any hit were thinned out: in the full panel of roughly 79,000, 15% have a hit. Where a SMILES comes first, the peptide text is derived from it. [ ]: non-standard residue; d: D form. Nva = CCC[CH](N)C(=O)O
Answers are plain numbers, in %.

Examples from the recorded data:
CCCC(N)C(=O)NC(C(=O)O)C(C)C (centres undefined) (H-[Nva]-Val-OH; configuration not given here); -3
O=C1NC(O)c2cccc(Cl)c2O1 (centres undefined); 98
COc1cc(C2CC(=O)c3ccccc3O2)ccc1O (centres undefined); 97

Batch lookup, growth inhibition per entry.
1. CC(=O)C(C(=N)C#N)C(=O)Nc1ccccc1 (centres undefined)
2. N#CC1(C#N)C2C=CC(C3CCC=C32)C1(C#N)C#N (centres undefined)

Completion:
1: -2; 2: 97

For the 6 compounds below, give their growth inhibition values.
1. O=C(NCc1ccc(F)cc1)c1ccc(C(=O)NCc2ccc(F)cc2)cc1
2. CCSC(=O)/C=C1\CN(C(=O)OC(C)(C)C)C1C(=O)OC(C)(C)C (centres undefined)
3. Nc1ccc2c(c1)[nH]c(=O)c1c(Cl)cccc12
4. O=[N+]([O-])c1ccc(O)c(-c2ccccc2)c1
5. C#CC(=O)OCC#CCOC(=O)C#C
6. OCCSCc1cc(Cl)cc(Cl)c1O

Completion:
1: 7; 2: 10; 3: -42; 4: 98; 5: 76; 6: 77

// for each compound in input: emit growth inhibition
1. Cc1ccc2[nH]c3c(c2c1)CCC/C3=N/N=C(N)N
2. COc1ccc2c(c1)C(Br)CCC(Br)C2=O (centres undefined)
3. Cn1c(=S)c2[nH]c(SCCN3CCOCC3)nc2n(C)c1=O
4. CCCCCCCCCCCCCCCCCC[n+]1cccc(C(=O)N2CCOCC2)c1
5. COc1ccc(-n2c3c(c4c(N)ncnc42)CCCC3)cc1
6. c1ccc([P+](c2ccccc2)(c2ccccc2)C2CCCCO2)cc1 (centres undefined)
7. O=C(O)CCCCCCCCC(=O)CCl

Completion:
99
51
83
99
-13
77
98

Would you mind listing growth inhibition for each of the following compounds?
1. CCC(=O)[O][Bi]([c]1ccccc1)[c]1ccccc1
2. COc1ccc(C(=O)c2cc(Br)ccc2O)cc1
3. COc1ccccc1C1C(Cl)C(=O)N1n1cnc2ccccc2c1=O (centres undefined)
4. CN1CCCN(C)C1c1cc([N+](=O)[O-])ccc1O
5. O=C(Nc1ccc(O)cc1O)c1ccccc1
6. CC(C)CC(N)C(=O)NNc1ccccc1 (centres undefined)
7. Brc1ccc(N=NN2CCCC2)cc1

Completion:
[96, 11, 55, 95, 46, 96, 37]

Where do the numbers come from? From PubChem BioAssay (NCI).
